experiment: Pharmacokinetic evaluation of compounds in mice; assay type: in vivo; settings: mouse, plasma; male CD-1 mice, IV 0.5 mg/kg; read-out: T1/2 IV (converted)
Counter-ions that a name gives are not always drawn.
MEASURE NAME: half-life (h)

Ask: Entry Cc1cc(-c2ncc(CNc3nccn4c(-c5cc(F)cc(F)c5)cnc34)cc2C)ccn1 [Compound 30 (hydrochloride)] has what half-life?
Reply: 2.5

Ask: If you can, please state the reported half-life value of Cc1cc(-c2ncc(CNc3nccn4c(-c5cccc(Cl)c5)cnc34)cc2C)ccn1 [Compound 28 (hydrochloride)] .
Reply: 2.6

(A) Cc1cc(-c2ncc(CNc3nccn4c(-c5cc(F)cc(F)c5)cnc34)cc2OCCN(C)C)ccn1
(B) Cc1cc(-c2ncc(CNc3nccn4c(-c5ccccc5)cnc34)cc2C)ccn1
Ask: Of the two listed items, A and B , which carries the larger half-life figure? Write down the label attached to your selection.
Reply: A
(A: 3.69 h, B: 2.23 h)

====

test system: STF reporter gene for WNT pathway (Porcupine of the Wnt signaling pathway); test: Inhibitory activity on Super-Top-Flash (STF) reporter gene; assay type: cell-based; settings: HEK293 STF and L wnt3A cells 1:1, 24 hours, Bright-Glo
Structures can show the parent of a compound that is named as a salt.
MEASURE NAME: IC50 (nM)

Ask: Form field: reported IC50 of Cc1cc(-c2ncc(CNc3nccn4c(-c5ccc(C#N)cc5)cnc34)cc2C)ccn1 [Compound 8]
Reply: 6.56

(A) COc1ccc(-c2cnc3c(NCc4cnc(-c5ccnc(C)c5)c(C)c4)nccn23)cc1 [Compound 9 (formate)]
(B) Cc1cc(-c2ncc(CNc3nccn4c(-c5cccc(Cl)c5)cnc34)cc2C)ccn1 [Compound 28 (hydrochloride)]
(C) Cc1cc(-c2ncc(CNc3nccn4c(-c5cccc(F)c5)cnc34)cc2C)ccn1 [Compound 29 (hydrochloride)]
Ask: rank_up(items): orders items by reported IC50 in ascending numerical order. # format: label list in the order the request specifies
Reply: C, B, A

====

assay: Pharmacokinetic evaluation of compounds in mice; format: in vivo; details: mouse, plasma; male CD-1 mice, IV 0.5 mg/kg
Structures can show the parent of a compound that is named as a salt.
MEASURE NAME: clearance (mL/min/kg)

Ask: Give the measured clearance of Cc1cc(-c2ncc(CNc3nccn4c(-c5cccc(Cl)c5)cnc34)cc2C)ccn1 [Compound 28 (hydrochloride)] .
Reply: 4.16

(A) Cc1cc(-c2ccc(CNc3nccn4c(-c5ccccc5)cnc34)cc2C#N)ccn1 [Compound 22 (formate)]
(B) Cc1cc(-c2ncc(CNc3nccn4c(-c5ccccc5)cnc34)cc2C)ccn1
(C) Cc1cc(-c2ncc(CNc3nccn4c(-c5cc(F)cc(F)c5)cnc34)cc2OCCN(C)C)ccn1
Ask: Please list the entries, largest clearance first. Provide your answer as the labels ordered per the instruction.
Reply: C, A, B
(C: 35.1 mL/min/kg, A: 8.24 mL/min/kg, B: 5.05 mL/min/kg)

====

system: STF reporter gene for WNT pathway (Porcupine of the Wnt signaling pathway); assay: Inhibitory activity on Super-Top-Flash (STF) reporter gene; assay type: cell-based; details: HEK293 STF and L wnt3A cells 1:1, 24 hours, Bright-Glo
pIC50: −log10 of the molar value. Where a name gives a salt, the structure may show the parent alone.
MEASURE NAME: pIC50

Consider the reported pIC50 for these compounds:
Ask: Item: "Cc1cc(-c2ncc(CNc3nccn4c(-c5cnn(C)c5)cnc34)cc2C)ccn1" Test system: STF reporter gene for WNT pathway (Porcupine of the Wnt signaling pathway) Read-out: pIC50 Value: ?
Reply: 9.85

Ask: Under STF reporter gene for WNT pathway (Porcupine of the Wnt signaling pathway): pIC50 value of "Cc1cc(-c2ncc(CNc3nccn4c(N5CCNCC5)cnc34)cc2C)ccn1" ?
Reply: 8.01

Ask: Lab note: need pIC50 for Cc1cc(-c2ncc(CNc3nccn4c(-c5cc(F)cc(F)c5)cnc34)cc2C)ccn1 [Compound 30 (hydrochloride)] on STF reporter gene for WNT pathway (Porcupine of the Wnt signaling pathway), anyone have it?
Reply: 9.28

Ask: Provide value of pIC50 for this record tested with STF reporter gene for WNT pathway (Porcupine of the Wnt signaling pathway): "Cc1cc(-c2ncc(CNc3nccn4c(-c5cccnc5)cnc34)cc2C)ccn1"
Reply: 9.92

(I) Cc1cc(-c2ncc(CNc3nccn4c(-c5ccccc5)ncc34)cc2C)ccn1
(II) Cc1cc(-c2ncc(CNc3nccn4c(-c5ccc(F)cc5)cnc34)cc2C)ccn1
Ask: Between I and II , whose recorded pIC50 is greater? # answer = label of selected item
Reply: I
(I: 10.30, II: 9.02)

Values from patent US12365686B2
